- TESTED_TARGET: histamine H-2 receptor (Oryctolagus cuniculus)
- Construct: The mixture of glands and cells is collected by centrifugation
- Sequence (G1TWL8 1-367): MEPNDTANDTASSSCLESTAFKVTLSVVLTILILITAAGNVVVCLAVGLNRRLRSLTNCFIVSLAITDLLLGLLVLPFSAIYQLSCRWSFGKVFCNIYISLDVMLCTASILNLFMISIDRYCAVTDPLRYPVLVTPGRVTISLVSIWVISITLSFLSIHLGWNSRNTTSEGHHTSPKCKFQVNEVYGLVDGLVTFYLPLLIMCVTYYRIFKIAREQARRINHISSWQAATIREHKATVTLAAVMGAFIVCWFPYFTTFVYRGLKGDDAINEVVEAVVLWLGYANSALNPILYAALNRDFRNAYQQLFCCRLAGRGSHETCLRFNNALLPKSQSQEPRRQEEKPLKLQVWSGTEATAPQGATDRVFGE
- PROTOCOL_DETAILS: aminopyrine test: inhibition of histamine-induced uptake of aminopyrine into the acid space of parietal cells
- CONDITION: rabbit gastric mucosa glands/cells; uptake stimulated by histamine 10^-5 M and ICI 63197 5×10^-7 M; read-out: concentration giving 50% inhibition of uptake of aminopyrine
- Protocol: The aminopyrine test is carried out as follows: Gastric mucosa from the New Zealand white rabbit is removed from the underlying muscle and washed in Buffer 1 which contains per liter: NaCl (8.007 g.), KCl (0.201 g.), Na2 HPO4 (0.113 g.), KH2 PO4 (0.204 g.), CaCl2.2H2 O (0.132 g.) MgCl2 (0.101 g.) and glucose (1 g.), adjusted to pH 7.4 with NaOH. The tissue is finely chopped, suspended in Buffer 1 and washed three times with Buffer 1. […]
pIC50: −log10 of the molar value. Structures can show the parent of a compound that is named as a salt.
VALUE_TYPE: pIC50

If you can, please state the reported pIC50 value of NC(=NCC(F)(F)F)Nc1nc(CSCCNc2n[s+]([O-])nc2N)cs1 (stereo not shown) [Example 1, maleate] .
> 5.52
